Reference for the values: ChEMBL document CHEMBL1153722

- Species: Rattus norvegicus
- test summary: Inhibition of rat recombinant Rab geranylgeranyltransferase at 100 uM in presence of canine Rab7 and rat REP1 NBD-FPP based continuous fluorimetric assay
outcome measure: inhibition (%)
Lab book: enter the figure in %, no units written.

These solved cases illustrate the format of a correct answer.
smiles_record=CCCCCCCCCCCOc1ccc(C(=O)N[C@@H](Cc2c[nH]cn2)C(=O)N[C@@H](Cc2ccc(O)cc2)C(=O)N[C@@H](Cc2ccccc2)C(N)=O)cc1 result_number=81
smiles_record=COC(=O)NNC(=O)[C@H](CCC(=O)O)NC(=O)[C@H](NC(=O)[C@@H]1CCCN1C(=O)c1ccc([N+](=O)[O-])c(NC(C)=O)c1)C(C)C result_number=101

Given the compound CC(C)C[C@H](NC(=O)/C=C/c1ccccc1)C(=O)N[C@@H](Cc1ccccc1)C(=O)N[C@@H](Cc1ccccc1)C(=O)Nc1ccc(F)cc1F , what is its reported inhibition? 93

###

- Species: Rattus norvegicus
- test summary: Inhibition of rat recombinant Rab geranylgeranyltransferase at 100 uM in presence of canine Rab7 and rat REP1 NBD-FPP based continuous fluorimetric assay
Peptide text beside a SMILES is read from it. * marks the point of attachment. Hydrocinnamoyl = O=C(CCc1ccccc1)*
outcome measure: inhibition
Output should be the measured figure followed by the unit it is expressed in.

Reference set, count: 3
compound=CC(C)C[C@H](NC(=O)[C@H](CO)NC(=O)[C@H](Cc1ccccc1)NC(=O)CCc1ccccc1)C(N)=O outcome_measure=inhibition result=100%
compound="NCCCC[C@H](NC(=O)CCc1ccccc1)C(=O)N[C@@H](Cc1c[nH]cn1)C(=O)N[C@@H](CO)C(=O)O (Hydrocinnamoyl-Lys-His-Ser-OH)" outcome_measure=inhibition result=89%
compound=CCCCCCCCCCCOc1ccc(C(=O)N[C@@H](Cc2ccc(O)cc2)C(=O)N[C@@H](Cc2ccc(O)cc2)C(=O)N[C@@H](Cc2ccc(O)cc2)C(=O)NCCCn2ccnc2)cc1 outcome_measure=inhibition result=48%

Look up inhibition: CCCCCCCCCCCOc1ccc(C(=O)N[C@@H](Cc2ccc(O)cc2)C(=O)N[C@@H](Cc2ccc(O)cc2)C(=O)N[C@@H](Cc2ccc(O)cc2)C(=O)Nc2ccc(F)cc2F)cc1 101%

Give the measured inhibition of CCCCCCCCCCC(=O)N[C@@H](Cc1c[nH]cn1)C(=O)N[C@@H](Cc1cnc[nH]1)C(=O)N[C@@H](Cc1ccc(O)cc1)C(=O)NCC(O)CO (stereo partly specified) . 65%

Which inhibition is reported for this compound? COC(=O)[C@H](CO)NC(=O)[C@H](Cc1ccccc1)NC(=O)[C@H](CO)NC(=O)/C=C/c1ccc(F)cc1 98%

###

- test summary: Displacement of Mant-FPP from rat recombinant Rab geranylgeranyltransferase by co-titration based fluorescence assay
outcome measure: pKi
pKi here: minus log base 10 of the concentration, concentration in moles per litre.

smiles_record=O=C(CNC(=O)[C@H](Cc1c[nH]cn1)NC(=O)c1coc(-c2ccccc2)n1)N[C@@H](Cc1cn(C(c2ccccc2)(c2ccccc2)c2ccccc2)cn1)C(=O)O result_number=5.28

Which pKi value belongs to CCCCCCCCCCC(=O)N[C@@H](Cc1ccc(O)cc1)C(=O)N[C@@H](Cc1c[nH]cn1)C(=O)N[C@@H](Cc1ccc(O)cc1)C(=O)N(C)CCc1ccccn1 ? 5.55

Name the reported pKi value associated with the molecule CN(C(=O)[C@H](Cc1cnc[nH]1)NC(=O)OCc1ccccc1)[C@@H](Cc1ccccc1)C(=O)N[C@@H](Cc1ccc(O)cc1)C(=O)NO 4.84

Tell me the measured pKi of CN(C(=O)[C@@H](Cc1c[nH]cn1)NC(=O)OCc1ccccc1)[C@@H](Cc1ccccc1)C(=O)N[C@@H](Cc1ccc(O)cc1)C(=O)O , please. 5.35

pKi lookup needed for CCCCCCCCCCC(=O)N[C@@H](Cc1cnc[nH]1)C(=O)N[C@@H](Cc1c[nH]cn1)C(=O)N[C@@H](Cc1ccc(O)cc1)C(=O)N(C)CCc1ccccn1 , thanks. 5.96

Any idea what pKi was measured for CCCCCCCCCCC(=O)N[C@@H](Cc1c[nH]cn1)C(=O)N[C@@H](Cc1ccccc1)C(=O)N[C@@H](Cc1ccc(O)cc1)C(=O)N(C)CCc1ccccn1 ? 5.27
